System: human T cells
procedure.details: Inhibition of 5-HT-dependent T Cell Proliferation
Type: cell-based
protocol.conditions: Homo sapiens, T-cell, monocyte-free human T cells stimulated with PWM and 5-HT; 3H-thymidine incorporation; 7 days
measurement.name: IC50 (µM)
Write down the numeric answer in µM and omit the unit.

> print(dat)
                                   molecule            tgt  unit.abbrev  number
1  COC(OC)C12c3ccccc3C(c3ccccc31)C1CN(CCCN3CCN(c4ccc(F)cc4)CC3)CC12 (stereo not shown) [Example 107]  human T cells           µM       1
2  COc1cc(N2CCN(CCCN3CC4C5c6ccccc6C(c6ccccc65)C4C3)CC2)cc(OC)c1OC (stereo not shown) [Example 106]  human T cells           µM     0.5

Let's switch to this molecule now.
For CC12C(=O)N(CCCN3CCN(c4ccc(F)cc4)CC3)C(=O)C1C1c3ccccc3C2c2ccccc21 (stereo not shown) [Example 40] , what is its reported IC50?
5

====

Test system: human T cells
procedure.details: Inhibition of 5-HT-dependent T Cell Proliferation
Assay type: cell-based
protocol.conditions: Homo sapiens, T-cell, monocyte-free human T cells stimulated with PWM and 5-HT; 3H-thymidine incorporation; 7 days
pIC50: −log10 of the molar value.
The following compounds are listed with their measured pIC50 values.

Reference set (3 entries):
> print(dat)
                                   compound  result
1  O=C1C2C3c4ccccc4C(c4ccccc43)C2C(=O)N1CCCN1CCN(c2ccc(F)cc2)CC1 (stereo not shown) [Example 1]  < 5.00
2  O=C1C2C3c4ccccc4C(Cl)(c4ccccc43)C2C(=O)N1CCCN1CCN(c2ccccc2)CC1 (stereo not shown) [Example 34]  < 5.00
3  O=C1C2C3c4ccccc4C(c4ccccc43)C2C(=O)N1CCCCN1CCN(c2ccccc2F)CC1 (stereo not shown) [Example 6]  < 5.00

Let's switch to this compound now.
For CC12c3ccccc3C(c3ccccc31)C1CN(CCCN3CCN(c4ccccc4)CC3)CC12 (stereo not shown) [Example 94] , what is its reported pIC50?
5.15

====

The following compounds are listed with their measured pIC50 values.
System: human T cells
procedure.details: Inhibition of 5-HT-dependent T Cell Proliferation
Type: cell-based
protocol.conditions: Homo sapiens, T-cell, monocyte-free human T cells stimulated with PWM and 5-HT; 3H-thymidine incorporation; 7 days
Conceptually, pIC50 converts a concentration in mol/L into minus its log10.

Reference set (2 entries):
> print(dat)
                                   compound            tgt  number
1  CC12c3ccccc3C(c3ccccc31)C1C(=O)N(CCCN3CCN(c4ccc(Cl)cc4)CC3)C(=O)C12 (stereo not shown)  human T cells    5.30
2  Clc1ccccc1N1CCN(CCCN2CC3C4c5ccccc5C(c5ccccc54)C3C2)CC1 (stereo not shown)  human T cells    5.30

Entry Clc1cccc(N2CCN(CCCCN3CC4C5c6ccccc6C(c6ccccc65)C4C3)CC2)c1 (stereo not shown) , system human T cells: what pIC50 was measured?
5.70

Entry CC12CN(CCCN3CCN(c4ccccc4)CC3)CC1C1c3ccccc3C2c2ccccc21 (stereo not shown) , system human T cells: what pIC50 was measured?
5.70

Entry O=C1C2C3c4ccccc4C(c4ccccc43)C2C(=O)N1CCCCN1CCN(c2ccccc2)CC1 (stereo not shown) , system human T cells: what pIC50 was measured?
5.30

Entry Clc1ccc(N2CCN(CCCN3CC4C5c6ccccc6C(c6ccccc65)C4C3)CC2)cc1 (stereo not shown) , system human T cells: what pIC50 was measured?
5.52

Entry c1ccc(N2CCN(CCCCCN3CC4C5c6ccccc6C(c6ccccc65)C4C3)CC2)cc1 (stereo not shown) , system human T cells: what pIC50 was measured?
6.30

Entry Cc1ccccc1N1CCN(CCCN2CC3C4c5ccccc5C(c5ccccc54)C3C2)CC1 (stereo not shown) , system human T cells: what pIC50 was measured?
5.70

Entry O=C1C2C3c4ccccc4C(CCl)(c4ccccc43)C2CN1CCCN1CCN(c2ccc(F)cc2)CC1 (stereo not shown) , system human T cells: what pIC50 was measured?
5.70

====

Test system: human T cells
procedure.details: Inhibition of 5-HT-dependent T Cell Proliferation
Assay type: cell-based
protocol.conditions: Homo sapiens, T-cell, monocyte-free human T cells stimulated with PWM and 5-HT; 3H-thymidine incorporation; 7 days
measurement.name: IC50 (µM)
Write down the numeric answer in µM and omit the unit.

> print(dat)
                                   compound            tgt  unit.abbrev  number
1  O=C1C2C(CN1CCCN1CCN(c3ccc(F)cc3)CC1)C1(Cl)c3ccccc3C2(Cl)c2ccccc21 (stereo not shown) [Example 112]  human T cells           µM       5
2  Clc1cccc(N2CCN(CCCN3CC4C5c6ccccc6C(c6ccccc65)C4C3)CC2)c1 (stereo not shown) [Example 78]  human T cells           µM       5

For Fc1ccc(N2CCN(CCCN3CC4C5c6ccccc6C(C=Cc6ccccc6)(c6ccccc65)C4C3)CC2)cc1 (stereo not shown) [Example 103] , what is its reported IC50?
2

====

Tested on: human T cells
procedure.details: Inhibition of 5-HT-dependent T Cell Proliferation
Type: cell-based
protocol.conditions: Homo sapiens, T-cell, monocyte-free human T cells stimulated with PWM and 5-HT; 3H-thymidine incorporation; 7 days
measurement.name: pIC50
Conceptually, pIC50 converts a concentration in mol/L into minus its log10.

> print(dat)
                                   compound  number
1  O=C1N(CCCN2CCN(c3ccc(F)cc3)CC2)C(=O)C2(Cl)C3c4ccccc4C(c4ccccc43)C12Cl (stereo not shown)    4.30
2  O=C1C2C(CN1CCCN1CCN(c3ccccc3)CC1)C1(Cl)c3ccccc3C2(Cl)c2ccccc21 (stereo not shown)    5.70
3  COc1ccc(N2CCN(CCCCN3CC4C5c6ccccc6C(c6ccccc65)C4C3)CC2)cc1 (stereo not shown)    6.30

For c1ccc(N2CCN(CCCCN3CC4C5c6ccccc6C(c6ccccc65)C4C3)CC2)cc1 (stereo not shown) , what is its reported pIC50?
5.30

====

The following molecules are listed with their measured pIC50 values.
System: human T cells
procedure.details: Inhibition of 5-HT-dependent T Cell Proliferation
Assay type: cell-based
protocol.conditions: Homo sapiens, T-cell, monocyte-free human T cells stimulated with PWM and 5-HT; 3H-thymidine incorporation; 7 days
Conceptually, pIC50 converts a concentration in mol/L into minus its log10.

Reference set (3 entries):
> print(dat)
                                   molecule  measurement.name  number
1  O=C1C2C3c4ccccc4C(c4ccccc43)C2CN1CCCN1CCN(c2cc(Cl)cc(Cl)c2)CC1 (stereo not shown) [Example 115]             pIC50    5.70
2  O=C1N(CCCN2CCN(c3ccc(F)cc3)CC2)CC2C3c4ccccc4C(c4ccccc43)C12c1ccccc1 (stereo not shown) [Example 117]             pIC50    5.70
3  ClC12c3ccccc3C(c3ccccc31)C1CN(CCCN3CCN(c4ccccc4)CC3)CC12 (stereo not shown) [Example 99]             pIC50    5.10

Entry Cc1cccc(C)c1N1CCN(CCCN2CC3C4c5ccccc5C(c5ccccc54)C3C2)CC1 (stereo not shown) [Example 88] , system human T cells: what pIC50 was measured?
6.00

Entry COc1ccc(N2CCN(CCCN3CC4C5c6ccccc6C(c6ccccc65)C4C3)CC2)cc1 (stereo not shown) [Example 77] , system human T cells: what pIC50 was measured?
5.15

====

The following compounds are listed with their measured IC50 values.
System: human T cells
procedure.details: Inhibition of 5-HT-dependent T Cell Proliferation
Format: cell-based
protocol.conditions: Homo sapiens, T-cell, monocyte-free human T cells stimulated with PWM and 5-HT; 3H-thymidine incorporation; 7 days

> print(dat)
                                   compound  measurement.name   result
1  CC12C(=O)N(CCCN3CCN(c4ccccc4)CC3)C(=O)C1C1c3ccccc3C2c2ccccc21 (stereo not drawn) [Example 39]              IC50  > 10 µM
2  COc1ccc(N2CCN(CCCN3C(=O)C4C5c6ccccc6C(c6ccccc65)C4C3=O)CC2)cc1OC (stereo not drawn) [Example 28]              IC50  > 10 µM
3  CC12c3ccccc3C(c3ccccc31)C1CN(CCCN3CCN(c4ccc(F)cc4)CC3)CC12 (stereo not drawn) [Example 96]              IC50  > 10 µM

For CC12c3ccccc3C(c3ccccc31)C1C(=O)N(CCCN3CCN(c4ccccc4)CC3)C(=O)C12 (stereo not drawn) [Example 29] , what is its reported IC50?
> 10 µM

For O=C1C2C3c4ccccc4C(c4ccccc43)C2C(=O)N1CCN1CCN(c2ccccc2)CC1 (stereo not drawn) [Example 3] , what is its reported IC50?
> 10 µM

For O=C1C2C3c4ccccc4C(c4ccccc4)(c4ccccc43)C2C(=O)N1CCCN1CCN(c2ccc(F)cc2)CC1 (stereo not drawn) [Example 49] , what is its reported IC50?
> 50 µM

Numbers sourced from patent US5409932A.
